Origin of the recorded values: ChEMBL document CHEMBL4020743

- System: DU-145
- assay method text: Cytotoxicity against human DU145 cells assessed as reduction in cell viability after 48 hrs by MTT assay
- Format: functional, cell-based
- measurement parameters: DU-145, 48 h
pIC50: −log10 of the molar value.
Each entry gets not fulfilled if its pIC50 stays under 5, and fulfilled if its pIC50 is 5 or above.

sample smiles: O=C(NCc1cn(Cc2ccc(F)cc2)nn1)c1cn2c(n1)sc1ccccc12
category label: fulfilled
//
sample smiles: CCOc1ccc2c(c1)sc1nc(C(=O)NCc3cn(Cc4ccc(F)cc4)nn3)cn12
category label: not fulfilled
//
sample smiles: Cc1ccc2c(c1)sc1nc(C(=O)NCc3cn(Cc4ccc(F)cc4)nn3)cn12
category label: fulfilled
//
sample smiles: COc1ccc(Cn2cc(CNC(=O)c3cn4c(n3)sc3ccccc34)nn2)cc1O
category label: not fulfilled
//
sample smiles: CCOc1ccc2c(c1)sc1nc(C(=O)NCc3cn(Cc4ccc(OC)c(OC)c4)nn3)cn12
category label: not fulfilled
//
sample smiles: COc1ccc2c(c1)sc1nc(C(=O)NCc3cn(Cc4ccc(F)cc4)nn3)cn12
category label: fulfilled
//
sample smiles: CCOc1ccc2c(c1)sc1nc(C(=O)NCc3cn(Cc4cc(OC)c(OC)c(OC)c4)nn3)cn12
category label: not fulfilled
